- measured on: VIM-1 (Pseudomonas aeruginosa (strain ATCC 15692 / DSM 22644 / CIP 104116 / JCM 14847 / LMG 12228 / 1C / PRS 101 / PAO1))
- measurement protocol: biochemical
- condition notes: fluorescence assay, CCF2-FA substrate, 30 pM enzyme, 2 hours at 25° C.; read-out: VIM-1 IC50
pIC50: −log10 of the molar value.
Reported pIC50 values for a set of compounds
property measured: pIC50

1) C[C@H](CN)NS(=O)(=O)c1ccc(-c2cccn3ccnc23)c(-c2nn[nH]n2)c1S(N)(=O)=O [Example 384]	10.27
2) NC[C@@H](O)CNS(=O)(=O)c1ccc(-c2cccc3[nH]cnc23)c(-c2nn[nH]n2)c1S(N)(=O)=O [Example 301]	10.28
3) C[C@@H](N)CNS(=O)(=O)c1ccc(-c2ccc(N)nc2)c(-c2nn[nH]n2)c1S(N)(=O)=O [Example 480]	9.60
4) CNc1nc2c(-c3ccc(S(=O)(=O)N[C@@H]4CCNC4)c(S(N)(=O)=O)c3-c3nn[nH]n3)cccc2[nH]1 [Example 280]	9.80
